test.protocol: soluble on expression in E. coli; label from the status in PepcDB or PDB records
readout.name: soluble on expression in E. coli

primary_sequence=MHHHHHHSSGVDLGTENLYFQSMAKSAEVKLAIFGRAGVGKSALVVRFLTKRFIWEYDPTLESTYRHQATIDDEVVSMEILDTAGQEDTIQREGHMRWGEGFVLVYDITDRGSFEEVLPLKNILDEIKKPKNVTLILVGNKADLDHSRQVSTEEGEKLATELACAFYECSACTGEGNITEIFYELCREVRRRRMVQ assay_value=soluble
primary_sequence=GNIESIENLQGIRALQQQAPQLLSSGLPNEQQFSLLKQAGVDVVINLMPDSSKDAHPDEGKLVTQAGMDYVYIPVDWQNPKVEDVEAFFAAMDQHKGKDVLVHCLANYRASAFAYLYQLKQGQNPNMAQTMTPWNDELAIYPKWQALLTEVSAKYGH assay_value=soluble
primary_sequence=AIAHAASFRDCKAWQSDGLPLSSSSNEACKLYDAILSQYVTWRNDETLGGIEGCITSIKAADPDFVMGHVISTGLELVGTGSSVLRDERLASAVRRTVELADTQQLTSREKNHVKAVQLFSKGSVHRNLTFMFNG assay_value=soluble
primary_sequence=PTSSTTAALVMGDALAVALLEARGFTAEDFALSHPGGALGRKLLLRVNDIMHTGDEIPHVGLQATLRDALLEITRKNLGMTAICDDDMNIIGIFTDGDLRRVFDTGVDMRDASIADVMTRGGIRIRPGTLAVDALNLMQSRHITCVLVADGDHLLGVVHMHDLLRA assay_value=soluble
primary_sequence=MGSDKIHHHHHHMIPSQHFQSTPTVQFDLLTYMIGSYHYNWHPQIELLWLLQGTVEVNVDGTRHQLHANDLILINANRGHATFALTPECIALRLHILPDFYTNQGIDLSSGAFLLNSVTTPQHRDYQTIRQILAQLYLGLHQQDWPIFDLNALYFQLTNLLHHDFFDTGITMTYPQPKTQSSLNRVIDYINQAYDRPITLNEAAKISHYSPAYLSRIFKAELGLNFYEYLTRCRLQHAIYDLENPTTRVADLALANGFQEVKSFNLMFKKHFGQTPSSYRQHLSHGQRPEYDQFKQPLTPTQTTIVQKQLNHWAQLTSTDQLSACESCMYKLHFQEYQALKQKIAQLKTLLNQ assay_value="not soluble"
primary_sequence=MSTQSILTKPTEATAFQPDQVVRILETVLLTTPEPLSISDLKKLFEGNIDKKTLHESLTILSEKWHDSGINLVSVAGGWRFQSKPEMQVFLDRLNPQRPPRYSRAVMETLAIIAYRQPVTRGDIEEIRGVAVSTQIIKTLESRGWIETIGQRDIPGKPYLYATTRHFLDDLNLQSLEQLPSLDSFNSLDLSADEAESVDTDTTTIQESGEPASHEPTQLL assay_value="not soluble"
primary_sequence=MLTIERHEQIVKLVQEKEVVTIHDLVEYTNASESTIRRDLTELEKQKKLKRIHGGASVLKKRREEPTMAEKTVKNNHEKKKIAELAASFVEDGDCLFLDAGTTTYELIPFIKTKKIVVVTNGLDSISALLEAGVETYVIGGTVKQGTRAFVGRHAIQSLQTFRFDKAFLGINGVHLEDGFTTPDPQEAYVKETALSLSREAFMLVDHSKFGETTFATVAPIHAATIVTSSQVEQQVIQAYETQTAVKVVTLLEHHHHHH assay_value=soluble
primary_sequence=MAHHHHHHMGKALGMQRAKAQRLRKVVLRGSAAGSRSFLLYAQPTPNMLSETSGAVVDMCTDEFSIDIKEPSPEDAIVVASLTLRKKKMQKWREEKRTAAKPPKRAQSGASTCTLNFNKQETRWPLKISEC assay_value="not soluble"
